Documented NKL Ortho Proliferation Signal 1:10 across a set of binders
Biological target: T1, orthogonal hCD122 receptor (hoRb), hCD122 with H133D and Y134F (human, UniProt P14784 27-550)
T1 sequence: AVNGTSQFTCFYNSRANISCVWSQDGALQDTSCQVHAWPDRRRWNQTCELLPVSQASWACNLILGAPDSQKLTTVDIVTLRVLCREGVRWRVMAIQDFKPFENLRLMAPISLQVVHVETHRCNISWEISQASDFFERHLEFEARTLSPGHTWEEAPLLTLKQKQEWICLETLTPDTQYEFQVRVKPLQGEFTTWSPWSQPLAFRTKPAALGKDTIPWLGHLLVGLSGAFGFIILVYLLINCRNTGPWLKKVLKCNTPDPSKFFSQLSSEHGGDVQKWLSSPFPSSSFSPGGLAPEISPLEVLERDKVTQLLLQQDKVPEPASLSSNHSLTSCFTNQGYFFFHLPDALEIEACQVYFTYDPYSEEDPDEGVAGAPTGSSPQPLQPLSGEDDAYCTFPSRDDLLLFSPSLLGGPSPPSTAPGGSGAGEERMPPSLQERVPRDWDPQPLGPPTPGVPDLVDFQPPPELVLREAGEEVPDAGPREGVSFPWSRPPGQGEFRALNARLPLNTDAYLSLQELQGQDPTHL
Assay: cell-based or functional assay
reported-endpoint: NKL Ortho Proliferation Signal 1:10

binder: SQVLKY (ligand) APTSSSTKKTQLQLSQLLVLLKYILNGINNYKNPKLTRMLTFKFYMPKKATELKHLQCLEEELKPLEEVLNLAQSKNFHLRPRDLISNINVIVLELKGSETTFMCEYADETATIVEFLNRWITFCQSIISTLT
val: 43800

binder: SQVLIA (ligand) APTSSSTKKTQLQLSQLLVLLIAILNGINNYKNPKLTRMLTFKFYMPKKATELKHLQCLEEELKPLEEVLNLAQSKNFHLRPRDLISNINVIVLELKGSETTFMCEYADETATIVEFLNRWITFCQSIISTLT
val: 10700

binder: ΔG27, SQVLKA (ligand) APTSSSTKKTQLQLSQLLVLLKAILNINNYKNPKLTRMLTFKFYMPKKATELKHLQCLEEELKPLEEVLNLAQSKNFHLRPRDLISNINVIVLELKGSETTFMCEYADETATIVEFLNRWITFCQSIISTLT
val: 31400

binder: L18V, SQVLKA (ligand) APTSSSTKKTQLQLSQLVVLLKAILNGINNYKNPKLTRMLTFKFYMPKKATELKHLQCLEEELKPLEEVLNLAQSKNFHLRPRDLISNINVIVLELKGSETTFMCEYADETATIVEFLNRWITFCQSIISTLT
val: 14000

binder: T3P, SQVLKA (ligand) APPSSSTKKTQLQLSQLLVLLKAILNGINNYKNPKLTRMLTFKFYMPKKATELKHLQCLEEELKPLEEVLNLAQSKNFHLRPRDLISNINVIVLELKGSETTFMCEYADETATIVEFLNRWITFCQSIISTLT
val: 56900

binder: M39V, SQVLKA (ligand) APTSSSTKKTQLQLSQLLVLLKAILNGINNYKNPKLTRVLTFKFYMPKKATELKHLQCLEEELKPLEEVLNLAQSKNFHLRPRDLISNINVIVLELKGSETTFMCEYADETATIVEFLNRWITFCQSIISTLT
val: 31300

binder: Q126T, SQVLKA (ligand) APTSSSTKKTQLQLSQLLVLLKAILNGINNYKNPKLTRMLTFKFYMPKKATELKHLQCLEEELKPLEEVLNLAQSKNFHLRPRDLISNINVIVLELKGSETTFMCEYADETATIVEFLNRWITFCTSIISTLT
val: 6750

binder: SQVLKV (ligand) APTSSSTKKTQLQLSQLLVLLKVILNGINNYKNPKLTRMLTFKFYMPKKATELKHLQCLEEELKPLEEVLNLAQSKNFHLRPRDLISNINVIVLELKGSETTFMCEYADETATIVEFLNRWITFCQSIISTLT
val: 66100

binder: V91R, SQVLKA (ligand) APTSSSTKKTQLQLSQLLVLLKAILNGINNYKNPKLTRMLTFKFYMPKKATELKHLQCLEEELKPLEEVLNLAQSKNFHLRPRDLISNINRIVLELKGSETTFMCEYADETATIVEFLNRWITFCQSIISTLT
val: 5580

binder: N88E, SQVLKA (ligand) APTSSSTKKTQLQLSQLLVLLKAILNGINNYKNPKLTRMLTFKFYMPKKATELKHLQCLEEELKPLEEVLNLAQSKNFHLRPRDLISEINVIVLELKGSETTFMCEYADETATIVEFLNRWITFCQSIISTLT
val: 7090

binder: KQVLKA (ligand) APTSSSTKKTQLQLKQLLVLLKAILNGINNYKNPKLTRMLTFKFYMPKKATELKHLQCLEEELKPLEEVLNLAQSKNFHLRPRDLISNINVIVLELKGSETTFMCEYADETATIVEFLNRWITFCQSIISTLT
val: 67600

binder: L18S, SQVLKA (ligand) APTSSSTKKTQLQLSQLSVLLKAILNGINNYKNPKLTRMLTFKFYMPKKATELKHLQCLEEELKPLEEVLNLAQSKNFHLRPRDLISNINVIVLELKGSETTFMCEYADETATIVEFLNRWITFCQSIISTLT
val: 21500

binder: ΔM23, SQVLK- (ligand) APTSSSTKKTQLQLSQLLVLLKILNGINNYKNPKLTRMLTFKFYMPKKATELKHLQCLEEELKPLEEVLNLAQSKNFHLRPRDLISNINVIVLELKGSETTFMCEYADETATIVEFLNRWITFCQSIISTLT
val: 19000

binder: SQILKA (ligand) APTSSSTKKTQLQLSQLLILLKAILNGINNYKNPKLTRMLTFKFYMPKKATELKHLQCLEEELKPLEEVLNLAQSKNFHLRPRDLISNINVIVLELKGSETTFMCEYADETATIVEFLNRWITFCQSIISTLT
val: 52500
